# Target: T1, soluble CA125 in OVCAR-3 supernatant (human, UniProt Q8WXI7 1-14439, limits assumed, heavily glycosylated with O-linked and N-linked oligosaccharides)
# T1 construct: Not purified: used as OVCAR-3 culture supernatant, detected with the anti-CA125 mAb OC125; also called MUC16; OVCAR-3 supernatant containing CA125
# Assay details: sandwich ELISA, captured rFc fusion at various concentrations, OVCAR-3 supernatant, OC125 detection; nonlinear regression/Scatchard
# Method: Scatchard plots (top left corner) were made. ELISA plates captured the Fc mesothelin mutant fusion proteins at various concentrations (x axis; see Experimental Procedures). OVCAR-3 supernatant containing soluble CA125 was then added, followed by the OC125 mAb and a goat anti-mouse IgG HRP. […] Kinetic studies by ELISA—To precisely characterize the interaction between CA125 and mesothelin and to determine a binding affinity (KD) for each mesothelin fragment, we used a quantitative ELISA-based assay. […]
Reported property: pKd
# pKd is unitless: minus log10 of the molar concentration; print number only

Solved cases below.
binder="W321A alanine mutant of mesothelin Region IAB (296-359), rabbit IgG Fc fusion protein (Fc fusion, not shown: a dimerising Fc or GST; small tags and cut ends, Alanine mutant within Region IAB) EVEKTACPSGKKAREIDESLIFYKKAELEACVDAALLATQMDRVNAIPFTYEQLDVLKHKLDEL" reported_property=pKd meas_value=7.71
binder="E324A alanine mutant of mesothelin Region IAB (296-359), rabbit IgG Fc fusion protein (Fc fusion, not shown: a dimerising Fc or GST; small tags and cut ends, Alanine mutant within Region IAB) EVEKTACPSGKKAREIDESLIFYKKWELAACVDAALLATQMDRVNAIPFTYEQLDVLKHKLDEL" reported_property=pKd meas_value=7.37
binder="mesothelin Region IAB (296-359) rabbit IgG Fc fusion protein (Fc fusion, not shown: a dimerising Fc or GST; small tags and cut ends, also called Region IAB wild-type (wt)) EVEKTACPSGKKAREIDESLIFYKKWELEACVDAALLATQMDRVNAIPFTYEQLDVLKHKLDEL" reported_property=pKd meas_value=8.47

Now turn to the next binder.
Input line: Entry H354A alanine mutant of mesothelin Region IAB (296-359), rabbit IgG Fc fusion protein (Fc fusion, not shown: a dimerising Fc or GST; small tags and cut ends, Alanine mutant within Region IAB; also called H354A mutant of IAB) EVEKTACPSGKKAREIDESLIFYKKWELEACVDAALLATQMDRVNAIPFTYEQLDVLKAKLDEL : reported pKd = ?
Output line: 8.57
